pIC50: −log10 of the molar value.
Let's go through some recorded pIC50 values for mGluR5 (Rattus norvegicus, UniProt P31424) together.

| testSmiles | pIC50 |
| --- | --- |
| Fc1ccc(Cc2noc(CCC#Cc3ccccn3)n2)cc1 | > 5.00 |
| Clc1cccc2nn(CCC#Cc3ccccn3)nc12 | > 7.30 |
| Cc1nc(C#CCCn2nc3cccc(Cl)c3n2)cn1C | > 5.00 |
| CN(CCC#Cc1ccccn1)S(=O)(=O)c1ccc(F)cc1 | > 5.00 |
| Cc1cccc(C(=O)N(C)CCC#Cc2ccccn2)c1 | > 5.00 |
| Cc1ccc2nn(CCC#Cc3ccccn3)nc2c1 | > 6.30 |
| Cn1c(CCC#Cc2cccc(CF)n2)nc2ccccc21 | > 6.30 |
| Cc1cccc2oc(CCC#Cc3ccccn3)nc12 | > 5.00 |
| FCc1cccc(C#CCCc2cnc3cc(F)ccc3n2)n1 | > 7.30 |
| Clc1cccc2cn(CCC#Cc3ccccn3)nc12 | > 5.00 |
| Cc1ccc2oc(CCC#Cc3ccccn3)nc2c1 | > 5.00 |
| Clc1ccc(-c2noc(CCC#Cc3ccccn3)n2)cc1 | > 5.00 |
| Clc1cccc2sc(CCC#Cc3ccccn3)nc12 | > 7.30 |
| FCc1cccc(C#CCCn2cc(-c3ccc(F)cc3)cn2)n1 | > 5.00 |
| Cc1ccc2nc(CCC#Cc3ccccn3)oc2c1 | > 5.00 |
| C(#Cc1ccccn1)CCc1csc(-c2ccccc2)n1 | > 5.00 |
| C(#Cc1ccccn1)CCc1nc2ccccc2s1 | > 7.30 |
| Brc1cccc2oc(CCC#Cc3ccccn3)nc12 | > 7.30 |
| Cn1c(=O)n(CCCC#Cc2ccccn2)c2ccccc21 | > 5.00 |
| CN(C(=O)CCC#Cc1ccccn1)c1ccccc1 | > 5.00 |
| C(#Cc1ccccn1)CCCCn1nc2ccccc2n1 | > 5.00 |
| CCNc1cccc(C#CCCn2nc3ccccc3n2)n1 | > 5.00 |
